The origin of these recorded values is patent US8624002B2.

Assay: Accelerated stability screening monitored by SEC
Type: physicochemical
Details: SEC, start of stability study
Would you mind telling me the reported Fragment (%) of each entry?
Provide a numeric answer, followed by its unit.

# Molecule, Experimental readout, Measured value
rows = [
    ("Hu2B5.1: humanized 2B5-8.0; VH SEQ ID NO 60, VL SEQ ID NO 61 (antibody, V domains shown) VH: EVQLVQSGAEVKKPGASVKVSCKASGYTFTKYWLGWVRQAPGQGLEWIGDIYPGYDYTHYNEKFKDRATLTVDTSTSTAYMELRSLRSDDTAVYYCARSDGSSTYWGQGTLVTVSS VL: DVVMTQTPLSLPVTPGEPASISCTSSQNIVHSNGNTYLEWYLQKPGQSPQLLIYKVSNRFSGVPDRFSGSGSGTDFTLKISRVEAEDVGVYYCFQVSHVPYTFGGGTKVEIKR", "Fragment (%)", "4.4044%"),
]

Now for another entry.
QUERY: Identify Fragment (%) associated with the molecule Hu2B5.9: humanized 2B5-8.0; VH SEQ ID NO 76, VL SEQ ID NO 77 (antibody, V domains shown) VH: EVQLVQSGAEVKKPGASVKVSCKASGYTFTKYWLGWVRQAPGQGLEWMGDIYPGYDYTHYNEKFKDRVTMTTDTSTSTAYMELRSLRSDDTAVYYCARSDGSSTYWGQGTLVTVSS VL: DIVMTQTPLSLPVTPGEPASISCTSSQNIVHSNGNTYLEWYLQKPGQSPQLLIYKVSNRFSGVPDRFSGSGSGTDFTLKISRVEAEDVGVYYCFQVSHVPYTFGGGTKVEIKR
RESULT: 2.541%
